- Tested on: PA-1
- Procedure summary: Primary qHTS to identify gynecologic anti-cancer compounds using libraries of approved drugs and bioactive compounds (AID 1345084); also: nearly all actives have a fitted effect of over 55% in size
- Measurement context: Gynecologic cancer cell panel viability, ATPlite luminescence, 48 h; series mostly up to 57.5 µM
- Text: National Center for Advancing Translational Sciences [NCATS] Assay Overview: Chemotherapeutic drug responses vary from cancer to cancer and from patient to patient. […] ATPlite is a luminescence based assay reliant on the conversion of a luciferase substrate to light in the presence of ATP. As a cytotoxic compound will suppress growth and decrease the number of cells, the concentration of ATP will decrease, and less light signal will be detected in the well. […]
Results filed as inconclusive are left out. Calls of active or inactive are those of the source. Calls follow the shape of the dose curve; as a rule, active = well fitted cell-killing curve with a large enough effect; inconclusive = small, poorly fitted or top-dose-only effect, or effect the other way; inactive = flat fitted curve, though single readings scatter.
Possible outcomes: TRUE (active), FALSE (inactive)

{"Molecule": "Oc1ccc(CNc2ccccc2F)c2cccnc12", "Class name": "TRUE"}
{"Molecule": "COc1cc(/C=C/CO)cc(OC)c1O[C@@H]1O[C@H](CO[C@@H]2O[C@H](CO)[C@@H](O)[C@H](O)[C@H]2O)[C@@H](O)[C@H](O)[C@H]1O", "Class name": "FALSE"}
{"Molecule": "CC[C@H]1OC(=O)[C@](C)(F)C(=O)[C@H](C)[C@@H](O[C@@H]2O[C@H](C)C[C@H](N(C)C)[C@H]2O)[C@](C)(OC)C[C@@H](C)C(=O)[C@@H](C)[C@H]2N(CCCCn3cc(-c4cccc(N)c4)nn3)C(=O)O[C@]12C", "Class name": "FALSE"}
{"Molecule": "Cc1cc(Nc2nc(NC(C)c3ncc(F)cn3)ncc2Cl)n[nH]1 (stereo not given)", "Class name": "FALSE"}
{"Molecule": "COc1cc(N)c(Cl)cc1C(=O)NC[C@@H]1CCN2CCC[C@@H]12", "Class name": "FALSE"}
{"Molecule": "COC(=O)C(C)C1CCC2(C)C(=O)C=CC(C)(O)C2C1O (stereo not given)", "Class name": "FALSE"}
{"Molecule": "O=C(O)CCCCCC[C@H]1C(=O)NC(=O)N1CC[C@@H](O)C1CCCCC1", "Class name": "FALSE"}
{"Molecule": "C[C@H]1CC[C@@H]2N(C1)C[C@@H]1[C@H]([C@@H](O)[C@H](O)[C@]3(O)[C@H]1C[C@@]14OC5(O)[C@@H](C[C@@H](O)[C@@H]31)[C@]4(C)CC[C@@H]5O)[C@]2(C)O", "Class name": "FALSE"}
{"Molecule": "COc1cc(/C=C/C(=O)OC[C@H]2O[C@@](CO)(O[C@H]3O[C@H](CO)[C@@H](O)[C@H](O)[C@H]3O)[C@@H](OC(=O)/C=C/c3ccc(O)c(OC)c3)[C@@H]2O)ccc1O", "Class name": "FALSE"}
{"Molecule": "CC(=O)N1CCN(C(=O)Cc2ccc(Nc3ncc(F)c(Nc4ccc(C(=O)Nc5ccccc5Cl)cc4)n3)cc2)CC1", "Class name": "TRUE"}
{"Molecule": "CCC1C(=O)N(C)c2cnc(Nc3ccc(C(=O)NC4CCC(N5CCN(CC6CC6)CC5)CC4)cc3OC)nc2N1C(C)C (stereo not given)", "Class name": "TRUE"}
{"Molecule": "CC#CC(=O)N1CCC[C@H]1c1nc(-c2ccc(C(=O)Nc3ccccn3)cc2)c2c(N)nccn12", "Class name": "FALSE"}
{"Molecule": "COc1ccc(C[C@H](N)C(=O)N[C@@H]2[C@H](O)[C@H](n3cnc4c(N(C)C)ncnc43)O[C@@H]2CO)cc1", "Class name": "TRUE"}
{"Molecule": "COC(=O)c1cc(OC)c(O[C@@H]2O[C@@H](C)[C@H](O)[C@@H](O)[C@H]2O)c(OC)c1", "Class name": "FALSE"}
{"Molecule": "COc1ccc2nc(S(=O)(=O)Cc3ncc(C)c(OC)c3C)[nH]c2c1", "Class name": "FALSE"}
